// provenance: patent EP0533240A2

# ASSAY TARGET: uterine OT receptors (Rattus norvegicus)
# Construct: from tissue; host or cells: uterus of DES-treated rats, crude membrane preparation
# Sequence (P70536 1-388): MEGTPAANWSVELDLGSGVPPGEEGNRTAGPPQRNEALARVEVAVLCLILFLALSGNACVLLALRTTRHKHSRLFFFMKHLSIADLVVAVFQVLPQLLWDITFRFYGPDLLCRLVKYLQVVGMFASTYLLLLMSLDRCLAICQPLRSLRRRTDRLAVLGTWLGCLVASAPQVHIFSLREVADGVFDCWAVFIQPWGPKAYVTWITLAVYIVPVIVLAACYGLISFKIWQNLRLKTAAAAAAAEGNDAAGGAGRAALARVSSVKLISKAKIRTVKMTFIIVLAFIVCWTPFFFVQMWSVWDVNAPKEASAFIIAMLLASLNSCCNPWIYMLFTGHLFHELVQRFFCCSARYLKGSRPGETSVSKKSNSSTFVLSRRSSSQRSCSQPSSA
# ASSAY DETAILS: [3H]Oxytocin radioligand binding assay, crude uterine membrane preparation
# Parameters: species or system rats
# TEST CONDITIONS: at 1,000 nM compound; 1 nM [3H]OT, rat uterine membranes
# inhibition at 1 µM per record follows
ENDPOINT LABEL: inhibition at 1 µM

[[record]]
compound = "Cc1ccccc1N1CCN(S(=O)(=O)CC23CCC(CC2=CCN=[N+]=[N-])C3(C)C)CC1 (stereo not drawn) [Example 15]"
assay_target = "uterine OT receptors (Rattus norvegicus)"
value_measured = "44%"

[[record]]
compound = "COC(=O)C1=CC2CCC1(CS(=O)(=O)N1CCN(c3ccccc3C)CC1)C2(C)C (stereo not drawn) [Example 20]"
assay_target = "uterine OT receptors (Rattus norvegicus)"
value_measured = "72%"

[[record]]
compound = "Cc1ccccc1N1CCN(S(=O)(=O)CC23CCC(CC2(O)CNCC(C)C)C3(C)C)CC1 (stereo not drawn) [Example 19]"
assay_target = "uterine OT receptors (Rattus norvegicus)"
value_measured = "31%"

[[record]]
compound = "Cc1ccccc1N1CCN(S(=O)(=O)CC23CCC(CC2N(C)C(=O)OCc2ccccc2)C3(C)C)CC1 (stereo not drawn) [Example 40]"
assay_target = "uterine OT receptors (Rattus norvegicus)"
value_measured = "35%"

[[record]]
compound = "Cc1ccccc1N1CCN(S(=O)(=O)CC23CCC(CC2NC(=O)OCc2ccccc2)C3(C)C)CC1 (stereo not drawn) [Example 39]"
assay_target = "uterine OT receptors (Rattus norvegicus)"
value_measured = "54%"

[[record]]
compound = "Cc1ccccc1N1CCN(S(=O)(=O)CC23CCC(C=C2C(=O)O)C3(C)C)CC1 (stereo not drawn) [Example 21]"
assay_target = "uterine OT receptors (Rattus norvegicus)"
value_measured = "38%"


* * *

# ASSAY TARGET: uterine OT receptors (Rattus norvegicus)
ENDPOINT LABEL: IC50 (nM)

[[record]]
molecule = "Cc1ccccc1N1CCN(S(=O)(=O)CC23CCC(CC2=CCNCC(C)C)C3(C)C)CC1 (stereo not shown)"
endpoint_label = "IC50"
uom = "nM"
value_measured = 1100

[[record]]
molecule = "Cc1ccccc1N1CCN(S(=O)(=O)CC23CCC(CC2(O)C(C)CNC(=O)C2CN4CCC2CC4)C3(C)C)CC1 (stereo not shown)"
endpoint_label = "IC50"
uom = "nM"
value_measured = 18

[[record]]
molecule = "Cc1ccccc1N1CCN(S(=O)(=O)CC23CCC(CC2=O)C3(C)C)CC1 (stereo not shown)"
endpoint_label = "IC50"
uom = "nM"
value_measured = 1000

[[record]]
molecule = "Cc1ccccc1N1CCN(S(=O)(=O)CC23CCC(CC2(O)C(C)CN)C3(C)C)CC1 (single isomer, unassigned)"
endpoint_label = "IC50"
uom = "nM"
value_measured = 180

[[record]]
molecule = "Cc1ccccc1N1CCN(S(=O)(=O)CC23CCC(CC2(O)C(C)CNC(=O)C2CCCN2CC(=O)O)C3(C)C)CC1 (stereo not shown)"
endpoint_label = "IC50"
uom = "nM"
value_measured = 28

[[record]]
molecule = "Cc1ccccc1N1CCN(S(=O)(=O)CC23CCC(CC2(O)C(C)CNC(=O)C2CCN(CC(=O)O)CC2)C3(C)C)CC1 (stereo not shown)"
endpoint_label = "IC50"
uom = "nM"
value_measured = 56

[[record]]
molecule = "CCOC(=O)CCCN1CCCC1C(=O)NCC(C)C1(O)CC2CCC1(CS(=O)(=O)N1CCN(c3ccccc3C)CC1)C2(C)C (stereo not shown)"
endpoint_label = "IC50"
uom = "nM"
value_measured = 100

